Reference source: ChEMBL document CHEMBL1137853

Reported clearance values for a set of compounds
assay_remarks: Plasma clearance in rat at 1 mpk iv
Format: ADME, organism-based
conditions_used: 1 mg/kg
Please respond with the number in mL/min/kg and leave the unit unwritten.

N[C@@H](CC(=O)N1CCSC1)Cc1cc(F)ccc1F ... 110

Recorded clearance of N[C@@H](CC(=O)N1CCSC1)Cc1cc(F)c(F)cc1F , please.
120

---

assay_remarks: Plasma clearance in rat at 2 mpk po
Assay type: ADME, organism-based
conditions_used: 2 mg/kg, read-out: Clearance
Reported CL/F values for a set of molecules
Please respond with the number in mL/min/kg and leave the unit unwritten.

Recorded CL/F of N[C@@H](CC(=O)N1CCSC1)Cc1cc(F)c(F)cc1F , please.
120

Recorded CL/F of N[C@@H](CC(=O)N1CCSC1)Cc1cc(F)ccc1F , please.
110

---

assay_remarks: Half life in rat at 2 mpk po
Assay type: ADME, organism-based
conditions_used: in vivo, 2 mg/kg
Reported half-life values for a set of compounds

N[C@@H](CC(=O)N1CCSC1)Cc1cc(F)c(F)cc1F ... 66 min

Recorded half-life of N[C@@H](CC(=O)N1CCSC1)Cc1cc(F)ccc1F , please.
30 min

---

Consider the following pIC50 values measured on Dipeptidyl peptidase 4 (Homo sapiens, UniProt P27487).
Sequence (P27487 whole entry): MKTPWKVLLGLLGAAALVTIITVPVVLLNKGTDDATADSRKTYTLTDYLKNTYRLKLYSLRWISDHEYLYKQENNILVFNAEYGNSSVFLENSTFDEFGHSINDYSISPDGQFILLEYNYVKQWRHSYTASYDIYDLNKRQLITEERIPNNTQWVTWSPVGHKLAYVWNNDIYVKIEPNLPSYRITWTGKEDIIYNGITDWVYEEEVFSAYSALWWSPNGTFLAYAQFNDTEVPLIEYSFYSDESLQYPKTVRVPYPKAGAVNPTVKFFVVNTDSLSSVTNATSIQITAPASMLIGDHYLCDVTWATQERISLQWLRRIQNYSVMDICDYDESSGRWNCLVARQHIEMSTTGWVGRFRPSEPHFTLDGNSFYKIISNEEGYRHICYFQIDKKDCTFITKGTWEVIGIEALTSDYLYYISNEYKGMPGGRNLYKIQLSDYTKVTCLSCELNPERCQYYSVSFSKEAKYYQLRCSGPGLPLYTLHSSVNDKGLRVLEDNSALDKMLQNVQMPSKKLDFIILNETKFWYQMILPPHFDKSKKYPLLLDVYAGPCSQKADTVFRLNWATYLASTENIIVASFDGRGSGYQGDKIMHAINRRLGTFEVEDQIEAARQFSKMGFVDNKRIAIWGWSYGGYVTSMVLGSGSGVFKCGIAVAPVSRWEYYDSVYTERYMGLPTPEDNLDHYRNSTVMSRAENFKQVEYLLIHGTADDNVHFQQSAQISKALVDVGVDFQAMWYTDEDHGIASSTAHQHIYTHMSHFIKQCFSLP
# pIC50 = -log10(concentration in molar units)

Past entries and their recorded results:
N[C@@H](CC(=O)N1CCSC1)Cc1cccc(F)c1 ... 5.69
N[C@@H](CC(=O)N1CCSC1)Cc1ccc(Cl)cc1 ... 5.52
N[C@@H](CC(=O)N1CCSC1)Cc1ccc([N+](=O)[O-])cc1 ... 5.81
N[C@@H](CC(=O)N1CCSC1)CC1CCCC1 ... 4.56

Request - read-out pIC50 | tested on Dipeptidyl peptidase 4 (Homo sapiens, UniProt P27487) | molecule N[C@@H](CC(=O)N1CCSC1)Cc1ccccc1F
6.03

Request - read-out pIC50 | tested on Dipeptidyl peptidase 4 (Homo sapiens, UniProt P27487) | molecule N#Cc1ccccc1C[C@@H](N)CC(=O)N1CCSC1
5.60

---

Consider the following IC50 values measured on Dipeptidyl peptidase 2 (Homo sapiens, UniProt Q9UHL4).
Please respond with the number in µM and leave the unit unwritten.

Past entries and their recorded results:
N[C@@H](CC(=O)N1CCSC1)Cc1cccc(C(F)(F)F)c1 ... 24.6
N[C@@H](CC(=O)N1CCSC1)Cc1ccc(I)cc1 ... 5.78
N[C@@H](CC(=O)N1CCSC1)Cc1cc(F)ccc1F ... 77.6

Continue with the compound presented below.
Request - read-out IC50 | tested on Dipeptidyl peptidase 2 (Homo sapiens, UniProt Q9UHL4) | compound N[C@@H](CC(=O)N1CCSC1)Cc1ccccc1F
49.7

---

assay_remarks: Bioavailability in rat (dose 1 mg/kg i.v.)
Assay type: ADME, organism-based
conditions_used: in vivo, iv
Reported bioavailability values for a set of molecules
Please respond with the number in % and leave the unit unwritten.

N[C@@H](CC(=O)N1CCSC1)Cc1cc(F)ccc1F ... 2

Recorded bioavailability of N[C@@H](CC(=O)N1CCSC1)Cc1cc(F)c(F)cc1F , please.
3

---

assay_remarks: Half life in rat at 1 mpk iv
Type: ADME, organism-based
conditions_used: in vivo, 1 mg/kg
Reported half-life values for a set of compounds
Please respond with the number in min and leave the unit unwritten.

N[C@@H](CC(=O)N1CCSC1)Cc1cc(F)c(F)cc1F ... 66

Recorded half-life of N[C@@H](CC(=O)N1CCSC1)Cc1cc(F)ccc1F , please.
30
